Please provide measured GI50 for the entries that follow.
# Test system: HCC 2998
# Test name: NCI tumour cell line growth inhibition, 48 h
Calls of active or inactive are those of the source. Cut-off read from the data, not from the text of the source: active = GI50 up to about 1.1 µM and inactive = higher.

Could you share which GI50 value was measured for O=c1[nH]c2ccccc2c2oc(-c3ccccc3)nc12 ?
> 100 µM (inactive)

What do we get for CC[C@@H]1CC[C@@H]2[C@H](CC[C@]3(C)[C@@H](O[N+](=O)[O-])CC[C@@H]23)[C@H]1C(C)=O ?
28 µM (inactive)

Another molecule to check: C[N+](C)(C)C1=NNC2=Nc3ccccc3SC2=C1
24.4 µM (inactive)

What do you get for Cc1ccc2c(c1)C(=O)/C(=N/Nc1ccc(Cl)cc1)CCO2 ?
54.1 µM (inactive)

Input O=c1[nH]nc(-c2ccccc2)n1Nc1ccccc1
> 100 µM (inactive)

Further, for O=C1/C(=C/c2cccc(O)c2)COc2ccccc21 ?
0.029 µM (active)

Then this molecule: CC(CO)(Nc1ccc([N+](=O)[O-])cc1[N+](=O)[O-])C(=O)O (stereo unspecified)
22.4 µM (inactive)

// same read-out, input: COC(=O)[C@@H]1C[C@H]([Se]c2ccccc2)CN1C(=O)OCc1ccccc1
87.9 µM (inactive)

And then Cc1cccc(N(C(=O)Nc2ccc(Cl)c(Cl)c2)C2=NCC(C)S2)c1 (stereo unspecified) , what is it?
36.8 µM (inactive)

# repeat for CC1=C2C(=O)c3ccccc3C(=O)[C@H]2[C@H]2CCO[C@H]2O1
19.4 µM (inactive)

Try CC(C)(C)c1cc([Si](C)(C)C)c(C#N)c([Si](C)(C)C)c1 next.
90.6 µM (inactive)

* * *

# Tested on: Hs-578T
# Test name: NCI tumour cell line growth inhibition, 48 h
Activity calls are given as the source filed them. Rule as the data show it: active = GI50 up to about 1.1 µM and inactive = higher.
Measured attribute: GI50

Can you look up GI50 on Hs-578T for COC(=O)C1=C(C(=O)OC)C2(c3ccccc3)c3ccccc3C(=O)C1N2C1CCCCC1 (stereo not given) ?
40.9 µM (inactive)

Cool, now Cc1csc2[n+]1C(=O)/C(=C\c1ccc([N+](=O)[O-])cc1)S2
25.6 µM (inactive)

Also need c1ccc2c(c1)[nH]c1nc3cc(-c4ccc5nc6c(nc5c4)[nH]c4ccccc46)ccc3nc12 , thanks.
> 100 µM (inactive)

Follow-up entry: CC(C)(C)c1cc(C(=O)/C=C/c2ccc(O)c(O)c2O)cc(C(C)(C)C)c1O
3.99 µM (inactive)

Further, for CNc1nc(SC)nc2c1c(N)nn2C ?
95.3 µM (inactive)

* * *

# System: DMS-114
# Test name: NCI tumour cell line growth inhibition, 48 h
Calls of active or inactive are those of the source. No stated cut-off is given here; in the data, active = GI50 up to about 1.1 µM and inactive = higher.
Provide the reported GI50 of each item.

Field request: GI50 | item: COC(=O)C1=CCON(c2ccccc2)C1c1ccccc1 (stereo unspecified)
48.3 µM (inactive)

Moving on to Cc1cc(Cl)ccc1NC1=NC(=O)C(CC(=O)Nc2ccc(Cl)cc2Cl)S1 (stereo unspecified)
> 100 µM (inactive)

Proceed to CC1=Nc2ccccc2SC(c2c(Cl)cccc2Cl)C1 (stereo unspecified)
1.52 µM (inactive)

Repeat for the following compound: Nc1ccc2c(c1)C(=O)N(OS(=O)(=O)c1ccccc1)C2=O
> 100 µM (inactive)

# iterate: Cc1nnc2c3nnc(C)n3c3ccccc3n12
> 100 µM (inactive)

Another: CC/C=C\C/C=C\C1CC(=O)NCCCNCCCCN1 (stereo unspecified)
> 100 µM (inactive)

* * *

# Test system: OVCAR-8
# Test name: NCI tumour cell line growth inhibition, 48 h
Activity calls are given as the source filed them. No stated cut-off is given here; in the data, active = GI50 up to about 1.1 µM and inactive = higher. Residues, ends and D or L forms follow the SMILES beside them. *: point of attachment. Cbz = O=C(OCc1ccccc1)*
Just give me one of these, please: active, inactive

For O=C1C=C(Nc2ccc(Cl)cc2Cl)c2ccccc2C1=O , what call appears in the results of this test?
inactive

Lookup Cc1ccc(C(N)=O)cc1/N=N/N(C)C
inactive

What do you have for CC(=O)c1nc2ccccc2n1CC(=O)c1ccc([N+](=O)[O-])cc1 ?
inactive

Consider next the compound Cc1nc(C(N)=S)sc1C(=O)CC(=O)C(=O)Nc1cccc(Cl)c1C in the same way.
inactive

Consider next the compound C=CCN1C(N)=C(C(N)=O)S/C1=C1/SC(=S)N(c2ccc(C)cc2)C1=O in the same way.
inactive

Please do the same for CC1=CC[C@@H]2[C@@H](CC[C@@]2(C)O)C(C)(C)[C@H]1CC[C@@H]1[C@@]2(C)CCC(=O)C(C)(C)O[C@@H]2CC[C@]1(C)O as well.
inactive

Same read-out for Cn1cc(C(=O)/C(Cl)=C(\Cl)C(=O)O)c2ccccc21 ?
inactive

Here is the next compound: CC(C)C1CNC2N1C(=O)C2(C)OCc1ccccc1 (stereo unspecified)
inactive

Now give it for C=CC/N=C1\N=C(C)C(C(=O)OCC)S1 (stereo unspecified) too.
inactive

Follow-up item: CCNC1=C(NC(=O)c2ccccc2)C(=O)c2ccccc2C1=O
inactive

What about Cc1sc2c(c1C)/C(=N\O)c1cccn1-2 ?
inactive

// same read-out, input: NC(=S)N/N=C/c1nccc2ccccc12
active

Query O=C(CN1CCCCC1)CC(O)(C(F)(F)F)C(F)(F)F next
inactive

Try CC(=O)Nc1cc2c(cc1O)CC[C@@H]1[C@@H]2CC[C@]2(C)[C@@H](O)CC[C@@H]12 next.
inactive

Here is the next compound: CCOC1CCC2C(CCC(/C=C/c3ccc(O)c4ncccc34)N2C)C1 (stereo unspecified)
inactive

# iterate: CN(Cc1ccccc1)C1(N(C)Cc2ccccc2)CC1
inactive

And what about the compound CN(C)CCCNc1ccc2nnn3c4ccc(OC(=O)c5ccccc5)cc4c(=O)c1c23 ?
inactive

Request: Cc1ccc(NC(=O)CCCC(=O)CC(=O)c2ccc(Br)cc2)cc1
inactive

Then this compound: COc1cc(CCNC2=CC(=O)c3cccnc3C2=O)ccc1O
inactive

Further, for Cc1csc2[n+]1C(=O)/C(=C\c1ccc([N+](=O)[O-])cc1)S2 ?
inactive

What do we get for C1CCCCC2(CCCCCCCCC3(CCC1)OCCO3)OCCO2 ?
inactive

And the next one, Cc1ccc(N)c(S)c1 ?
inactive

What would you report for Cc1ccc(S(=O)(=O)N/N=C2\CC(C)OC3=C2CCCCCC3)cc1 (stereo unspecified) ?
inactive

Queued: O=c1[nH]c2ccccc2c2oc(-c3ccccc3)nc12
inactive

Entry to check: O=C1c2ccccc2C(=O)N1c1nc(-c2ccc(Cl)cc2)cc(N2N=C(c3ccc(Br)cc3)CC2c2ccccc2)n1 (stereo unspecified)
inactive

Param item: CNC1Cc2c[nH]c3cccc(c23)C12C=C(C)C(=O)O2 (stereo unspecified)
inactive

Now consider COC(=O)[C@@H]1C[C@H]([Se]c2ccccc2)CN1C(=O)OCc1ccccc1 and answer again.
inactive

Next compound: Cc1cc(Cl)ccc1NC1=NC(=O)C(CC(=O)Nc2ccc(Cl)cc2Cl)S1 (stereo unspecified)
inactive

Consider next the compound O=c1cc(NNc2cccc3ccccc23)[nH]c(=O)[nH]1 in the same way.
inactive

Then what about the compound CC1CC/C(=C\c2ccc(Cl)cc2)c2nc(N)c(C#N)c(-c3ccc(Cl)cc3)c21 (stereo unspecified) ?
inactive

Thanks! And COC(=O)NC1(NC(=O)OC)NC(=O)c2cc(OC)c(OC)c(OC)c2N1 ?
inactive

Also check COC(=O)c1cncc2c1CC1C3(C(=O)OC)C=NC(C4C(CO)=CCC43)C21C (stereo unspecified)
inactive

Okay, and CCCCCCCCCCCCCC(=O)OCC(C[As](=O)(O)O)OC(=O)CCCCCCCCCCCCC (stereo unspecified) ?
inactive

Same question, COc1ccc2c(c1)nc1n2C(c2c(Cl)cccc2Cl)SC1 (stereo unspecified) this time
inactive

CCCSc1ccc2[nH]c(N3C(=O)/C(=C/c4cc(OC)c(OC)c(OC)c4)N=C3c3ccccc3)cc2c1 ?
inactive

Then this compound: O=C(c1ccc2ccccc2c1)C1S(=O)(=O)OCCOS1(=O)=O
inactive

Okay, and c1ccc2c(c1)[nH]c1nc3cc(-c4ccc5nc6c(nc5c4)[nH]c4ccccc46)ccc3nc12 ?
inactive

Follow-up item: C/C=C/[C@@H]1[C@H]2C(=O)[C@]3(Cl)[C@@H](/C=C/C)[C@@H]3C(=O)[C@@]12Cl
inactive

# repeat for CCOC(=O)CCC(NC(=O)OCc1ccccc1)C(=O)NC(CCC(=O)OCC)C(=O)OCC (stereo unspecified) (Cbz-Glu(OEt)-Glu(OEt)-OEt; configuration not given here)
inactive

Please do the same for COC(=O)CC(NC(=O)OCc1ccccc1)C(C(=O)OCc1ccccc1)C(C)(OC)OC (stereo unspecified) as well.
inactive

Same question for O=C(O)c1nc2ccc(C(F)(F)F)cc2nc1NCc1ccc(F)cc1 please.
inactive

* * *

# Test system: SF-268
# Test name: NCI tumour cell line growth inhibition, 48 h
Calls of active or inactive are those of the source. Cut-off read from the data, not from the text of the source: active = GI50 up to about 1.1 µM and inactive = higher.
Hi! Could you answer with just one of these? active, inactive

// outcome(item) with item = COC12C=CC(CC1)c1c(O)ccc(O)c12 (stereo unspecified)
inactive

And for CCOC1CCC2C(CCC(/C=C/c3ccc(O)c4ncccc34)N2C)C1 (stereo unspecified) ?
inactive

Subsequent entry: CC(C)(C)OC(=O)N(CCCN)CCCCN
inactive

Try this compound too: Cc1cc(NCCCCCCCNc2cc(C)nc3cc([N+](=O)[O-])ccc23)c2ccc([N+](=O)[O-])cc2n1
inactive

Field entry: NC(=S)N/N=C/c1nccc2ccccc12
active

Quick one: Cc1nn(C(=O)c2ccccc2O)c2c1C(c1ccc([N+](=O)[O-])cc1)SC(=N)N2 (stereo unspecified)
inactive

Further, for Cc1n[nH]c(=O)n1/N=C/c1ccco1 ?
inactive

What about this compound? O=C1C2=C(c3ccccc31)C(c1ccc([N+](=O)[O-])cc1)NC(S)=N2 (stereo unspecified)
inactive

Now try Cc1ccc(CC(C)N)cc1 (stereo unspecified) .
inactive

// next record C=CCC(CC=O)(C(=O)OCC)C(=O)OCC
inactive

Similarly, CC(=O)c1nc2ccccc2n1CC(=O)c1ccc([N+](=O)[O-])cc1 ?
inactive
